Target: Aldo-keto reductase family 1 member B1 (Rattus norvegicus)
PROPERTY_MEASURED: IC50 (nM)

COMPOUND: O=C(/C=C/c1ccc(O)cc1)c1cc(O)ccc1O
IC50 (nM): 5390
--
COMPOUND: COc1ccc(/C=C/C(=O)c2cc(Cl)ccc2O)c(OC)c1OC
IC50 (nM): 8200
--
COMPOUND: O=C(/C=C/c1ccc(O)c(O)c1)c1ccc(O)cc1O
IC50 (nM): 450
--
COMPOUND: O=C(/C=C/c1ccccc1)c1ccc(O)cc1O [2',4'-DIHYDROXYCHALCONE]
IC50 (nM): 1010
--
COMPOUND: O=C(/C=C/c1ccc(O)cc1O)c1cc(Cl)ccc1O
IC50 (nM): 850
--
COMPOUND: Cc1ccc(/C=C/C(=O)c2cc(Cl)ccc2O)c(C)c1
IC50 (nM): 7800

I: O=C(/C=C/c1ccc([N+](=O)[O-])cc1)c1ccc(O)cc1O
II: Cc1ccc(/C=C/C(=O)c2ccc(O)cc2O)c(C)c1
III: Cc1cccc(/C=C/C(=O)c2cc(Cl)ccc2O)c1
query: // ranking: key=IC50, reverse=True // format: requested-order list of labels
result: III, I, II
(III: 10200 nM, I: 3210 nM, II: 400 nM)
